Data provenance: patent US20240116892A1

biological target: JAK2 (JH1 domain-catalytic, Y1007F, Y1008F) kinase (Homo sapiens (Human), UniProt O60674, Y1007F/Y1008F); experiment: JAK2 JH1 Domain Binding Assay; conditions: qPCR readout
Sequence (O60674 849-1124 Y1007F/Y1008F): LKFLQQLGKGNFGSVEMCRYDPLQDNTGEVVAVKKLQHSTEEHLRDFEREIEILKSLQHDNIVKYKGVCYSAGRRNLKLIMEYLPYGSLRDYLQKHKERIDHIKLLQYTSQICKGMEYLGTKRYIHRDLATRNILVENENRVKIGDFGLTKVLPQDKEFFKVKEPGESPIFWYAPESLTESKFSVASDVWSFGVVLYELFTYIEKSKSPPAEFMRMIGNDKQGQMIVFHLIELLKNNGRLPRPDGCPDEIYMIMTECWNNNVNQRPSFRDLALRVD
pKd: −log10 of the molar value.

{"COMPOUND": "CC(=O)Nc1cnc(N2CC[C@@H](N(C)C(=O)Nc3cc(C(F)(F)F)cn(C)c3=O)C(F)(F)C2)cn1 (single isomer, unassigned)", "pKd": "> 8.00"}
{"COMPOUND": "CN(C(=O)Nc1cc(C(F)(F)F)cn(C)c1=O)[C@@H]1CCN(c2cnccn2)CC1(F)F (single isomer, unassigned)", "pKd": "7.30 to 8.00"}
{"COMPOUND": "CC(=O)Nc1cnc(N2CCC(N(C)C(=O)Nc3cc(CN4CCN(C)CC4)cc(C(F)(F)F)c3)CC2)cn1", "pKd": "7.30 to 8.00"}

====

target: JAK2 (JH1 domain-catalytic, Y1007F, Y1008F) kinase (Homo sapiens (Human), UniProt O60674, Y1007F/Y1008F); experiment: JAK2 JH1 Domain Binding Assay; settings: qPCR readout
pKd: −log10 of the molar value.

{"COMPOUND": "COCc1cc2nc(N3CC[C@@H](N(C)C(=O)Nc4cc(C(F)(F)F)cn(C)c4=O)[C@@H](F)C3)cnc2[nH]1", "pKd": "> 8.00"}
{"COMPOUND": "Cn1cc(C(F)(F)F)cc(NC(=O)N(C)[C@H]2CC[C@@H](c3cnc4[nH]ccc4n3)CC2)c1=O", "pKd": "> 8.00"}
{"COMPOUND": "CC1CN(C(=O)Nc2cc(C(F)(F)F)cn(C)c2=O)C2(CCN(c3cnc4[nH]cc(F)c4n3)CC2)C1 (single isomer, unassigned) [Example I-54-a]", "pKd": "6.00 to 7.30"}
{"COMPOUND": "CN(C)c1n[nH]c2ncc(N3CCC(N(C)C(=O)Nc4cc(C(F)(F)F)cn(C)c4=O)CC3)cc12", "pKd": "> 8.00"}
{"COMPOUND": "COc1n[nH]c2ncc(N3CC[C@@H](N(C)C(=O)Nc4cc(C(F)(F)F)cn(C)c4=O)[C@@H](F)C3)cc12", "pKd": "> 8.00"}
{"COMPOUND": "CN(C(=O)Nc1cc(C(F)(F)F)cn(C)c1=O)[C@@H]1CC=C(c2cnc3[nH]ccc3n2)CC1 (single isomer, unassigned)", "pKd": "> 8.00"}

====

biological target: JAK2 (JH1 domain-catalytic, Y1007F, Y1008F) kinase (Homo sapiens (Human), UniProt O60674, Y1007F/Y1008F); test: JAK2 JH1 Domain Binding Assay; conditions: qPCR readout
MEASUREMENT_NAME: Kd

{"SMILES_STRUCTURE": "CN(C(=O)Nc1cc(C(F)(F)F)n([C@@H]2CCOC2)n1)C1CCN(c2cnc3[nH]ncc3c2)CC1", "MEASUREMENT_NAME": "Kd", "MEASUREMENT": "< 10 nM"}
{"SMILES_STRUCTURE": "CN(C(=O)Nc1cc(C(F)(F)F)cn(C)c1=O)[C@@H]1CCN(c2cnc3[nH]n(C)c(=O)c3c2)CC1(F)F", "MEASUREMENT_NAME": "Kd", "MEASUREMENT": "10 to 50 nM"}
{"SMILES_STRUCTURE": "Cc1cc(C(F)(F)F)cc(NC(=O)N(C)[C@@H]2CCN(c3cnc4[nH]ncc4c3)C[C@H]2F)n1", "MEASUREMENT_NAME": "Kd", "MEASUREMENT": "< 10 nM"}
{"SMILES_STRUCTURE": "COc1n[nH]c2ncc(N3CC[C@H](N(C)C(=O)Nc4cc(C(F)(F)F)cn(C)c4=O)[C@@H](F)C3)cc12", "MEASUREMENT_NAME": "Kd", "MEASUREMENT": "< 10 nM"}
{"SMILES_STRUCTURE": "CNc1c[nH]c2ncc([C@H]3CC[C@@H](N(C)C(=O)Nc4cc(C(F)(F)F)cn(C)c4=O)CC3)nc12", "MEASUREMENT_NAME": "Kd", "MEASUREMENT": "< 10 nM"}
{"SMILES_STRUCTURE": "COc1c[nH]c2ncc([C@H]3CC[C@@H](N(C)C(=O)Nc4cc(C(F)(F)F)cn(C)c4=O)CC3)nc12", "MEASUREMENT_NAME": "Kd", "MEASUREMENT": "50 to 1000 nM"}
{"SMILES_STRUCTURE": "CN(C(=O)Nc1cc(C(F)(F)F)cn(C)c1=O)C1CCN(c2cnc3sncc3c2)CC1", "MEASUREMENT_NAME": "Kd", "MEASUREMENT": "< 10 nM"}
